// data source = the DeepSol protein solubility set

test: soluble on expression in E. coli; label from the status in PepcDB or PDB records
QUANTITY: soluble on expression in E. coli

Below are worked cases with known answers.
| SEQUENCE_ENTRY | soluble on expression in E. coli |
| --- | --- |
| TLFDKIWDAHVVTTVEDGPTQLYIDRLYCHEVTSPQAFAGLRERGIKVLRPEKVFCMPDHNTPTHDQDKPIEDPISKTQVDTLTKNAKDFGLTHFGMMHPKNGIIHVVGPERALTLPGMTIVCGDSHTSTHGAMGAIAFGIGTSEVEMVLASQCILQSRPKT | not soluble |
| MLKVKKEVLEKMIKQAERDYPYETCGLLIGKSEGGIRIAYEAFETPNANPDRKHDRYEIAPKDYMRAEDYAISKGMEIVGVYHSHPDHPDRPSQFDLQRAFPDLSYIIFSVQKGKVASYRSWELKGDKFEEEEVEVFE | not soluble |
| MPVKVLNFPSVVLQHFLVGLTSTELFELTQCSLKSKDRVRPYEKSNKTFRMAVDFQRNWVDIRGVYRFYVKELVDGKLPKTYGKMGVREFGDKKVQVELDENEKTINIFWPTTEKEDRTFAVMKVAEHFIYTLGLGEFESVTLGQENHAGRIIDWANEKNLNIANFTIGNVDKEHDDVDKVAEKLYSASFFKKVSANFKCLINPTEAFKPNEFLPGIPKNTNMIFFHGAHWMTIDTLKDFTACSVILYDCKFTNKDINEFIKLWKNKEFERIFYISINVPQGSGFKLTEVIAGLDGFGEIENDATTMKREDGKEIEVSVLDEKKQIRIVVD | not soluble |
| MSLSAADMTQTIKTLALNVRLSCELLGVPESSYYERINRRPSETQLRRQHLTLKIVQLFKANRGIYGAPKIHHLLLDKEEKVGVKLVQKIMQQLQLKSVVLKKFKPGYSASDGINRKNLVQNEPTERNKVWSTDITYIPTQQGWAYLSTIMDRYTKKVIAWDLGKRMTVELVQRTLNKAIKSQDYPEAVILHSDQGSQYTSLEYEELLKYYGMTHSFSRRGYPYHNASLESWHGYLKREWVYQFKYKNFEEAYQSIFWYIEAFYNSKRIHQSLGYLTPNQFEKVSAEGHHHHHH | not soluble |
| MRGSHHHHHHTDPALRAAIIPKNYARLESGYREKALKIYPWVCGRCSREFVYSNLRELTVHHIDHDHTNNPEDGSNWELLCLYCHDHEHSKYTEADQYGTTVIAGEDAQKDVGEAKYNPFADLKAMMNKKKGLCGR | soluble |
| MAHHHHHHMLRKTNLFLFAASRALMSGGSSHGPTPYQDKSYPVQPHNLNELQQPPDSWRKSPIMSKLMDQSLPVYDDVVTGVGRLYWQEPARVWHLFEADDTLMLEEHDREEWNDRPYVAVNHLYEPPIGSEERPIRVEGTGNPGDQQIVLCFGNCAPHVPQSNYYMMMKGYSKTKCPMCQQWFYVHNRPWLVMHPDWTDEPAADEGPAYTFAEIEAEFDRDFHEFGVYLNAE | not soluble |

# input for lookup
What measured soluble on expression in E. coli goes with MSYSSQGVVEKGKVMPGDVLATIEEFLPGEGVYVDPVKGFIRAAAPGVAYLDMSRRIAYVKPHKKPQTPGPGSEVAALVTGVRGDLVVAEVYGVVRLSPKPAWLYELPSPYSAAIPISQIADEYIKNIEDYYRMGDWILAKIVSRTPPFTLSTVEPRYGVVYAICSRCGAVMEFQSERSMKCPKCGNVEKRKVSIHAKSRHLRIRLVRNLVIYRS ?
soluble

###

test: soluble on expression in E. coli; label from the status in PepcDB or PDB records
QUANTITY: soluble on expression in E. coli

| SEQUENCE_ENTRY | RESULT_VALUE |
| --- | --- |
| MIEAEEQQPCKTDFYSELPKVELHAHLNGSISSHTMKKLIAQKPDLKIHDQMTVIDKGKKRTLEECFQMFQTIHQLTSSPEDILMVTKDVIKEFADDGVKYLELRSTPRRENATGMTKKTYVESILEGIKQSKQENLDIDVRYLIAVDRRGGPLVAKETVKLAEEFFLSTEGTVLGLDLSGDPTVGQAKDFLEPLLEAKKAGLKLALHLSEIPNQKKETQILLDLLPDRIGHGTFLNSGEGGSLDLVDFVRQHRIPLGKAWSFRSSR | soluble |
| AHHHHHHGSKARGRAWKYGDNIDTDVIIPARYLNTSDPKELAQHVLEDLDPEFRYKMKPGDIIVAGENFGCGSSREHAPLAIKAAGVSAVIAKSFARIFYRNAINIGLPILEAPEAVERIETGDEIEIDFSTGEIRNLTKGEVYHANPFPEFIMEIIKAGGLVEWAKRRLAK | soluble |

###

experiment: soluble on expression in E. coli; label from the status in PepcDB or PDB records
QUANTITY: soluble on expression in E. coli

| SEQUENCE_ENTRY | QUANTITY | RESULT_VALUE |
| --- | --- | --- |
| SLRKERARSAEEPWTQNQQKLLELALQQYPRGSSDCWDKIARCVPSKSKEDCIARYKLLV | soluble on expression in E. coli | soluble |
| MSLGAGQPLGGYAEDLEGRQADLPKYSRANVRIVFAAVFPESNVYQGGEGYPTPSSSRLLLLDQVKTYYALSSIHGVEIIESWRSAQEVLEAPRWRLGLLLHLEGADALADILDLELLHRLGFRSLGLTWNHDNRWAASCKTRRDYGLTQSGEDLVKKAAELGVIIDLAHASDKTVADAASASPKPVIVSHANFRWKVDSPRNVGEEAVEAVVSKGGVIGYSLISTLITRGRHPTLHDVASQMAEFVEVYGHRHLAIGTDYHGLLDIRPPTGLESIDRLPRLLEALADAGLSDRQIEAIAYGNIARVIREVLPGSEGHHHHHH | soluble on expression in E. coli | soluble |

###

assay: soluble on expression in E. coli; label from the status in PepcDB or PDB records

| SEQUENCE_ENTRY | soluble on expression in E. coli |
| --- | --- |
| MSLKSHRYMEVSFTKYRINLKYSFGISRSSNNYYDVAFVFIKDKGIIGRGEAAPSKRYGESIDYIIKLLESGISLPKNSYDKESVWKHVKPQLGGIKSLEAAFNMAIWDWWGQKQKKPVYELLNIKVNNLPKTSFTIAIGNMNEIERKIEEAKPYSILKVKLGTPKNDKKIITEIRKLTDKLIRVDANEGWDLDMAIKMSKWLADRNVEFIEQPFPASKIDQTSILKKKSPLDIFADENSINSNDIPSLEGVFDGINIKLMKCGSIEEGYKMIKLAREFDLKIMLGCMVESSIEGHHHHHH | soluble |
| MVSEAEFMAALAKFAETSATASAAADRVIAVANVDASRIADEFNALLGWAMKIATLLLEEISKNPSLKAEMAESHQMLFGNLGTIVPALLKFGPYINQILGNFGLSLGKLFGIVLAF | not soluble |
| MSFCSFFGGEVFQNHFEPGVYVCAKCSYELFSSHSKYAHSSPWPAFTETIHPDSVTKCPEKNRPEALKVSCGKCGNGLGHEFLNDGPKRGQSRFCIFSSSLKFVPKGKEAAASQGHLEHHHHHH | soluble |
| EHMQHLAMKGARFDIVLLPSSPTAHGLEQVQFQVAANKGNPPRPLNKVASGGELARISLALQVVASQYTQVPTLIFDEVDTGIGGGVAEMVGKALRALGRKHQVLAVTHLPQVASCGENHWRVRKHSEGEQTVSEISILDEIQRIEEVARMLGGEVITDTTRQHAAELLQLASKNSLF | not soluble |

###

assay: soluble on expression in E. coli; label from the status in PepcDB or PDB records

| SEQUENCE_ENTRY | soluble on expression in E. coli |
| --- | --- |
| MDITNIKEMNYEEVFSITITVDKPILIGQDDIVGRRQLIPIISGKVSGNNFNGKVLPGGIDSQIVRPDGKCELSARYAIRLDDGAAIYIENNGIRTVPDEYIEAVKSGEFVDPNAYYFRTIPTFETYSPKYKWMMNHIFVCCASRLPENVLLKFYKIS | soluble |
| MSLKITQIQAQNKNKNRRNVFVDGSYEFSCDMEIILKYKLKEGLEIDRTKLLQVIDQSKEEFAFRLALNYLSFKSRTSFEIYTYLLKKEYEEKIIEKVIEKLKYYRYVDDNQYVLNYIKTALAEGKKGKDRVQSDLINKKIPQDMIESHMHLFSCETNLEIAKELSNKYFKQNAHLPFNQFKNKLSQFLMRKGFNWEIINTCLNILEQDSEEGHHHHHH | soluble |

###

test: soluble on expression in E. coli; label from the status in PepcDB or PDB records
QUANTITY: soluble on expression in E. coli

Some entries whose results are on file:
| SEQUENCE_ENTRY | RESULT_VALUE |
| --- | --- |
| MHKKADQPFMKEKRGSKLTVRAMPIQSKNLQISGICDVVEFVQDSEGIELSGVSGSYKAFPVEYKRGKPKKGDEDIVQLVAQAMCLEEMLVCRIDKGYLFYNEIKHRVEVPITDALRDKVVQMAKEMHHYYENRHTPKVKTGPFCNNCSLQSICLPKLMNKRSVKRYIEGRLSELEHHHHHH | not soluble |
| MASEPIQITPNLAIPPGEIVERFVRASGAGGQNVNKVSTAVELRFDVAGSPSLPEPLRARLLSRRDRRMTADGVLVIDAQRFRTQDRNREDARERLAEIINACLSVPKRRVATKPSHGAKLRRLDAKRERSQIKRGRSASHWELEHHHHHH | soluble |
| SNAMNHSRESYDRLARELGGYRHPWARVLSGPDPELTFDLWLSRLLTPQTRVLEAGCGHGPDAARFGPQAARWAAYDFSPELLKLARANAPHADVYEWNGKGELPAGLGAPFGLIVSRRGPTSVILRLPELAAPDAHFLYVGPRLNVPEVPERLAAVGWDIVAEDHVSVLAHAPTWEDWQMRGEFMGKLARRADWDAEATVRGMPYREERHLVLARQLGVARKLGA | soluble |
| MDAYLDYISGIWSKIDKKFHDQDISAKVAILQLVARPYYYWIQENPAQEKPVVEESQPRKQDNLREITSKYGDALQVDSDTVKIVKRLNTDEFNKLKEDLRQLGFLYDAQLRGFKKKQ | not soluble |

Which soluble on expression in E. coli is reported for this sequence? MAKVPDLFEDLKNCYSENEDYSSAIDHLSLNQKSFYDASYGSLHETCTDQFVSLRTSETSKMSNFTFKESRVTVSATSSNGKILKKRRLSFSETFTEDDLQSITHDLEETIQPRSAPYTYQSDLRYKLMKLVRQKFVMNDSLNQTIYQDVDKHYLSTTWLNDLQQEVKFDMYAYSSGGDDSKYPVTLKISDSQLFVSAQGEDQPVLLKELPETPKLITGSETDLIFFWKSINSKNYFTSAAYPELFIATKEQSRVHLARGLPSMTDFQIS
soluble

Also, MSIETFTPTPLLFTPGAANKVKTLIDEEGNPRLKLRVFVTGGGCSGFQYGFTFDEDIADDDTVIERDGVGLVVDPMSFQYLAGSEVDYQEGLEGSRFVIKNPNAATTCGCGQSFSI please.
not soluble

And what about the sequence MPNITWCDLPEDVSLWPGLPLSLSGDEVMPLDYHAGRSGWLLYGRGLDKQRLTQYQSKLGAAMVIVAAWCVEDYQVIRLAGSLTARATRLAHEAQLDVAPLGKIPHLRTPGLLVMDMDSTAIQIECIDEIAKLAGTGEMVAEVTERAMRGELDFTASLRSRVATLKGADANILQQVRENLPLMPGLTQLVLKLETLGWKVAIASGGFTFFAEYLRDKLRLTAVVANELEIMDGKFTGNVIGDIVDAQYKAKTLTRLAQEYEIPLAQTVAIGDGANDLPMIKAAGLGIAYHAKPKVNEKAEVTIRHADLMGVFCILSGSLNQK ?
not soluble

Repeat with MGSDKIHHHHHHMKKNILHIHGFNSSPLSLKAEQTRKYMAKNFPNVGFYCPQLATTPANAMSQLEQLIETHDSNAKWYLIGSSLGGYFAHYLAKKYDCLAVLVNPAITPYELLHDYIGEQVNPYTEEVYQVTEDHMQQLKALEQTAPTIDCTEKNNYLVMVQTGDEVLNYQQAVEKYQYCRLIVQEGGDHSFINFDNCLPTISDFFQLDNTKRINSR
not soluble

// same read-out, input: MSLVRIKDIALKAKVSSATVSRILNEDESLSVAGETRQRVINIAEELGYQTVAKRRKSRGQKQRAQPLIGVLSCLSPDQERQDPYFSSIRKGIEKECFEQEIFITNSIHLGSFQEHIFRELDGVIVIGRVHDEAVKHISGRLEHAVFINHSPDPQAYDSIGIDFESASRQAIDHLFDLGYKRLGYIGGQEKEHTLKDGQSIRRTIEDKRLTAFLESAAPQPEHVLIGEYSMREGYRLMKKAIDQGHLPEAFFIASDSMAIGALKALQEAGLQVPRDTAIVSFNGIEEAEFASTPLTTVKVYTEEMGRTGVKLLLDRLNGRTLPQHVTLPTTLIVRQSCGCTAKEGHHHHHH
soluble

Same lookup for MGTAAERWERAQMFFDAKDYAVAARILDGLVDEVPEQTGPRLLLARSYYHSAQLGRAEAELRILVERDPVEHYARLMLGRTLQRQGRDDEADSQLRIASALAGLEHHHHHH , please.
not soluble

# iterate: MSRPRAKLTGNFPGCPVESALSFLDGKWKGVILYHLINEGTLRFNELRRHIPSVTQRMLTKQLRELEEAGLISRTVFPVVPPRVDYALTPLGETMRPVISALKSWGDAHVVCKNGEKYTRAPTVAEKAA
not soluble

Next entry: MFDKLKENEELWDLFTRKEEYSVTFRDAYERFPYYLSSHRNIFEPRVSKFLVENGLKPQYPDGKKFAVCLTHDIDAIYPDKLYPIVGPVKALSRGKLAEAVKAPFSRVNRKWNPCWNFREILALEAKYNAKSSFYFLALTSEETDFNYNIKDLETELGFISDSGWEVGLHGGHESYNSLEDIKEKKRRLEEVLGKKVVGYRNHYLRFRVPDTWELLSKAGFKYDTTFGYSDCAGFRNGMCHPYRPFNLNEGRQIDILEIPLVIMDRSLLKDYMRLNVKKAWECTKHLINTVEKYNGVITILWHNNMCIDGENLRYYEKVLEYCAEKNAWITSGEEIYNWWTSKIEPGNLEHHHHHH
not soluble

Note, next up: MISVCIATYNGEKYLAEQLDSILLQVSEEDELIISDDGSTDHTLEILRTYAANYPQIQLLQGPGQGVIANFAFALTHTKGEVIFLADQDDVWLPNKVTTVTEYFETHPDIQVVISDLKIVDADLQVTNPSYFKFRKVKPGFWRNAIKSGYIGAGMAFRQEMKNVILPIPPEVPMHDMWIGLLAARKKQTGLIKEPLVLYRRHGANVSPIITKTSFQQKLNWRVNLLKALHQRLKEQRLEHHHHHH
soluble
